Reported growth values follow for various molecules
# Test system: K-562 leukemia
# ASSAY: NCI-60 one-dose screen, 48 h (100 = growth as untreated, 0 = no growth, -100 = all killed)
# CONDITION_DESCRIPTION: 10 µM unless noted
The panel holds about 83,000 compounds, 20% with a hit somewhere; the sample as a whole holds those more often.
The reply should contain only the number, in %.

Completed entries (count: 5):
MOLECULE | OBSERVED_PROPERTY | VALUE_OBSERVED
CN(C)c1ccc(C#Cc2c(F)cccc2Cl)cc1 | growth | 95.5
COc1cc(-c2cccc([N+](=O)[O-])c2)c(-c2nc(-c3ccccc3)c(-c3ccccc3)n2C2CC2)cc1OC | growth | 32.6
COc1ccc(/C=C2\COc3ccc(O)c(O)c3C2=O)c(OC)c1 | growth | 14
CCCCN1CCN(c2ccc3nc(-c4ccc5nc(-c6cc(OC)c(OC)c(OC)c6)[nH]c5c4)[nH]c3c2)CC1 | growth | 30.8
C[C@@H](C[C@H](CCOCc1cccnc1)c1ccccc1)c1cc2ccccc2o1 | growth | 81.5

Okay, now this molecule:
Value of measured growth for the entry O=C(O)CC1Sc2ccccc2NC1=O (stereo not given) : 70.4
